Tested on: Acyl-CoA desaturase 1 (Rattus norvegicus)
Sequence (P07308 whole entry): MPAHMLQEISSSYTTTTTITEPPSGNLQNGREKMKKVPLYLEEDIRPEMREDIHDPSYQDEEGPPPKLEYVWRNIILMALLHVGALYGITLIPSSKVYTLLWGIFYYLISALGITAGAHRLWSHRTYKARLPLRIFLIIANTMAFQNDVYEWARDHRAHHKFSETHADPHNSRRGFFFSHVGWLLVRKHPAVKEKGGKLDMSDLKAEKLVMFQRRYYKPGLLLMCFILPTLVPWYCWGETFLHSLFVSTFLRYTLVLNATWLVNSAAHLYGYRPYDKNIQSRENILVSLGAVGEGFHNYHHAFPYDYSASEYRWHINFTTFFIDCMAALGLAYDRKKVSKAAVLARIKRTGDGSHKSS
Experiment summary: Inhibition of SCD1 in rat H42E cells
Assay type: cell-based
pIC50: −log10 of the molar value.
Measure name: pIC50

[P] O=C(NCc1nccs1)c1ccc2[nH]c(-c3ccc(C(=O)c4ccccc4C(F)(F)F)cc3)nc2c1
[Q] O=C(NCc1ccc(Cl)s1)c1ccc2[nH]c(-c3ccc(C(=O)c4ccccc4C(F)(F)F)cc3)nc2c1
[R] OC(c1ccc2[nH]c(-c3ccc(OCc4ccccc4)cc3)nc2c1)c1ccccc1C(F)(F)F (racemic)
[S] O=C(NCc1nccs1)c1ccc2nc(-c3ccc(Oc4ccccc4Cl)cc3)[nH]c2c1
Task: Reorder the list above by recorded pIC50 in ascending order. Answer by naming the labels in the order asked.
Result: S, Q, P, R
(S: 6.52, Q: 6.74, P: 6.98, R: 7.85)
